molecular target: T1, HLA-A*01:01 (human); assay: UV-ligand exchange, anti-b2m ELISA
T1 construct: MHC class I monomer first loaded with a UV-sensitive peptide (not identified) that is cleaved by UV irradiation and exchanged for the tested peptide; captured on streptavidin plates, detected with anti-β2m; also called peptide-receptive MHC molecules
quantity_kind: peptide exchange yield

Some solved entries appear below for comparison.
TDVERIKDTY
50 to 75%
LTDRDVSFY
> 75%
AMMQEAQLAY
50 to 75%

query: Quick one: peptide exchange yield for RFRSITQSYY ?
result: 10 to 20%

query: Repeat with LTDPQVSYV
result: 50 to 75%

query: Repeat with ATNIQLNIDTY
result: 50 to 75%

query: Repeat with YLEDRPLSQ
result: 20 to 50%

query: Repeat with PPDHAVGRTKY
result: 20 to 50%
